Give Ki for every item shown.
target-desc: Cdc7 (BEV coexpressed huCDC7/DBF4) (Homo sapiens, UniProt O00311)
Construct: made in house; host or cells: baculovirus expression vector (BEV) system
Sequence (O00311 whole entry): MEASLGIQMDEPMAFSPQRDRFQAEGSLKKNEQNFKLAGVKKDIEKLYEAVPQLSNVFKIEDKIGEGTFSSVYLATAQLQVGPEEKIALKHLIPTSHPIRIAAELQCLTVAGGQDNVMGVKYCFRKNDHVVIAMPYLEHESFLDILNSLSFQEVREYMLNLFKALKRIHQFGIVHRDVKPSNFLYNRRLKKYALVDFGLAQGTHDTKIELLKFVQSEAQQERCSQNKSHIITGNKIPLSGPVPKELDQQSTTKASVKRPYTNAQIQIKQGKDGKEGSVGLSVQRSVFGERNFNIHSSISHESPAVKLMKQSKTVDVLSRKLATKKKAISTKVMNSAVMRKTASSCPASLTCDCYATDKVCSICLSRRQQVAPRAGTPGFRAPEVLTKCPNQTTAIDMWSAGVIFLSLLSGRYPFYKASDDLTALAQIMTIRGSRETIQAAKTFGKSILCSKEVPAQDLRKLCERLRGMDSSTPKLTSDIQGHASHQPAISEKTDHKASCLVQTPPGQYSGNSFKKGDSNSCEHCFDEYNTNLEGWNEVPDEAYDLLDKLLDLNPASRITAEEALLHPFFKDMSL
Sequence (Q9UBU7 whole entry partner): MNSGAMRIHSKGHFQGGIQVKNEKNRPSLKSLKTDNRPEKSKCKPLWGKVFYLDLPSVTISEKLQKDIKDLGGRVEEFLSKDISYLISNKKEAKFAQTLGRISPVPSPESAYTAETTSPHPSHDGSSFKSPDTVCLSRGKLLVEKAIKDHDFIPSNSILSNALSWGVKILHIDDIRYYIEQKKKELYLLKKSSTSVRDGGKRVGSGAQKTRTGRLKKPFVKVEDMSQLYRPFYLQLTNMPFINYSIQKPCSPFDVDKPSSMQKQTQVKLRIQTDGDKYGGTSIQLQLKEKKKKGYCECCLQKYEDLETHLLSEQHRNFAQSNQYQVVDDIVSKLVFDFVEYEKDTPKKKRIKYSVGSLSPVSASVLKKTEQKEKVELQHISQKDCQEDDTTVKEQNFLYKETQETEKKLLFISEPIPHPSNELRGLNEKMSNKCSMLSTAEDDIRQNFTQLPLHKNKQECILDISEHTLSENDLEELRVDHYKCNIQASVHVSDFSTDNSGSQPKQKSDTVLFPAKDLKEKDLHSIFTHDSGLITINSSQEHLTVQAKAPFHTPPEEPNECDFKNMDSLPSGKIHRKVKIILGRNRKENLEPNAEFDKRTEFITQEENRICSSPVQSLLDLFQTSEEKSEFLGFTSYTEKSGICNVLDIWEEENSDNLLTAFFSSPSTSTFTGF
run-description: Cdc7 enzyme inhibition assay ([33P]-ATP, biotinylated peptide substrate, FlashPlate)
Type: biochemical
details: Table 2; same assay as example 26

// recorded Ki for Clc1cc(-c2c[nH]c3ncc(Cl)nc23)cc(NC2CCCCC2)n1 : < 0.01 µM

Measured Ki, CN1CCCC(Nc2cc(-c3c[nH]c4nccnc34)cc(Cl)n2)C1 (stereo not drawn) : < 0.01 µM

Query Clc1cc(-c2c[nH]c3ncc(Nc4ccccc4)nc23)cc(NC2CCCCC2)n1 yields Ki of 0.01 to 0.1 µM

Note to self: Ki recorded for O[C@H]1CC[C@H](Nc2cc(-c3c[nH]c4ncc(Cl)nc34)cc(Cl)n2)CC1 was < 0.01 µM

Briefly, Ki measured for O=C(O)c1cnc2[nH]cc(-c3cc(Cl)nc(NC4CCCCC4)c3)c2n1 : < 0.01 µM

Lab note: C[C@@H](C(=O)N[C@H]1CC[C@H](Nc2cc(-c3c[nH]c4nccnc34)cc(Cl)n2)CC1)N(C)C (relative stereo) gave Ki of < 0.01 µM

* * *

For each of the compounds below, state its pKi.
target-desc: Cdc7 (BEV coexpressed huCDC7/DBF4) (Homo sapiens)
Construct: made in house; host or cells: baculovirus expression vector (BEV) system
run-description: Cdc7 enzyme inhibition assay ([33P]-ATP, biotinylated peptide substrate, FlashPlate)
Assay type: biochemical
details: Table 2; same assay as example 26
pKi: −log10 of the molar value.

Record CN1CCCC(CNc2cc(-c3c[nH]c4nccnc34)cc(Cl)n2)C1 (stereo not shown) [Example 28] , field pKi: > 8.00

# pKi (compound: Clc1cc(-c2c[nH]c3ncc(-c4ccccc4)nc23)cc(NC2CCCCC2)n1 [Example 38] ) is 7.00 to 8.00

Please fill in: pKi reported for Clc1cc(-c2c[nH]c3ncc(NCCCc4ccccc4)nc23)cc(NC2CCCCC2)n1 [Example 40] = 7.00 to 8.00

Note to self: pKi recorded for O=C(N[C@H]1CC[C@H](Nc2cc(-c3c[nH]c4nccnc34)cc(Cl)n2)CC1)[C@@H]1CCN1 [Example 30] was > 8.00

* * *

target-desc: Cdc7 (BEV coexpressed huCDC7/DBF4) (Homo sapiens)
Construct: made in house; host or cells: baculovirus expression vector (BEV) system
run-description: Cdc7 enzyme inhibition assay ([33P]-ATP, biotinylated peptide substrate, FlashPlate)
Format: biochemical
details: Table 1; Ki from IC50 assuming ATP-competitive inhibition, apparent ATP Km 0.7 μM, 1 μM ATP
Can you tell me Ki for the items I'm about to list?

Record CS(=O)(=O)N1CCCC(Nc2cc(-c3c[nH]c4nccnc34)cc(Cl)n2)C1 (centres unmarked) , field Ki: < 10 nM

The recorded Ki for entry CN(C)C1CCCC(Nc2cc(-c3c[nH]c4nccnc34)cc(Cl)n2)C1 (centres unmarked) equals < 10 nM

// Ki value for O=C(C1CC1)N1CCCC(Nc2cc(-c3c[nH]c4nccnc34)cc(Cl)n2)C1 (centres unmarked) : < 10 nM

Item: Clc1cc(-c2c[nH]c3nccnc23)nc(NC2CCCCC2)n1 | Ki: > 100 nM

Short answer for O=C(NC1CCCC(Nc2cc(-c3c[nH]c4nccnc34)cc(Cl)n2)C1)C1CC1 (centres unmarked) : Ki was < 10 nM

Measured Ki, CN(C)[C@H]1CC[C@H](Nc2cc(-c3c[nH]c4nccnc34)cc(Cl)n2)CC1 : < 10 nM

The compound listed as O[C@H]1CC[C@H](Nc2cc(-c3c[nH]c4nccnc34)cc(Cl)n2)CC1 shows Ki equal to < 10 nM

Entry O=C(Nc1cc(-c2c[nH]c3nccnc23)cc(Cl)n1)c1cccnc1 , Ki reported as < 10 nM

Recorded Ki (compound CN(C)CC(=O)NC1CCCC(Nc2cc(-c3c[nH]c4nccnc34)cc(Cl)n2)C1 (centres unmarked) ): < 10 nM

The reported value for CCn1cc(-c2cc(Cl)nc(NC3CCCC(NC(=O)CN(C)C)C3)c2)c2nccnc21 (centres unmarked) in terms of Ki is > 100 nM

Item: O=C(Nc1cc(-c2c[nH]c3nccnc23)cc(Cl)n1)C1CCNCC1 | Ki: < 10 nM

compound CS(=O)(=O)NC1CCCC(Nc2cc(-c3c[nH]c4nccnc34)cc(Cl)n2)C1 (centres unmarked) , Ki observed: < 10 nM

Short answer for CCn1cc(-c2cc(Cl)nc(N[C@H]3CC[C@H](NC(=O)C4CC4)CC3)c2)c2nccnc21 : Ki was > 100 nM

Short answer for N[C@H]1CC[C@H](Nc2cc(-c3c[nH]c4nccnc34)cc(Cl)n2)CC1 : Ki was < 10 nM

Lab note: measured Ki of Nc1cc(-c2c[nH]c3nccnc23)cc(Cl)n1 was < 10 nM

The reported value for CCCCC(=O)Nc1cc(-c2c[nH]c3nccnc23)cc(Cl)n1 in terms of Ki is < 10 nM

Lookup result for Clc1cc(-c2c[nH]c3nccnc23)cc(NC2CCCNC2)n1 (centres unmarked) ; measured Ki: < 10 nM
